Target: ACC1 from rat liver (Rattus norvegicus, UniProt P11497)
Construct: The livers (for ACC1 preparation) or skeletal muscle tissue (for ACC2 preparation) are removed; from tissue; host or cells: liver of male CD rats (fasted, then fed a high sucrose diet)
Test: Direct inhibition of ACC1 activity (14C-bicarbonate incorporation)
Format: biochemical
Conditions: ACC1 from rat liver
Experimental: [1] Preparation of ACC1 and ACC2. Male CD rats weighing 150-200 g are fasted for 2 days and then fed a high sucrose diet (AIN-76A rodent diet; Cat # D10001, Research Diets Inc., New Brunswick, N.J.), for 3 days at which time they are sacrificed by CO2 asphyxiation. […] [2] […] The dried vials are then cooled, 0.5 ml of water and 5.5 ml of Ready Safe liquid scintillation fluid (Beckman Coulter Inc., Fullerton, Calif.) are added, and the radioactivity is determined using a liquid scintillation counter. […]
Where a name gives a salt, the structure may show the parent alone.
The reader will find reported pIC50 values listed item by item below.
Would you please state pIC50, meaning minus log10 of the concentration in mol/L, as a bare number?

Below, 3 compounds whose answers are already recorded.
Q: For the compound COc1cc2c(c(OC)c1OC)C(=O)CC1(CCN(C(=O)c3cccc4cn[nH]c34)CC1)O2 [Ex. H11] , give its reported pIC50.
A: 6.12

Q: Specify reported pIC50 for the compound shown: Cc1cc2c(cc1C)C(=O)CC1(CCN(C(=O)c3ccc4c(C)nn(C)c4c3)CC1)O2 [Ex. G3]
A: 7.12

Q: Please look at this compound and report its pIC50: Cc1cc(C(=O)N2CCC3(CC2)CC(=O)c2cc(C(=O)O)ccc2O3)cc2cn[nH]c12 [Ex. A33, trifluoroacetic acid salt]
A: 6.52

# ---- query compound ----
Q: Find the measured pIC50 of Cc1cc(C(=O)N2CCC3(CC2)CC(=O)c2ccc(-c4ccccc4)cc2O3)cc2cn[nH]c12 [Ex. A34] and report it.
A: 6.40

* * *

Molecular target: ACC1 from rat liver (Rattus norvegicus)
Construct: The livers (for ACC1 preparation) or skeletal muscle tissue (for ACC2 preparation) are removed; from tissue; host or cells: liver of male CD rats (fasted, then fed a high sucrose diet)
Experiment: Direct inhibition of ACC1 activity (14C-bicarbonate incorporation)
Type: biochemical
Details: ACC1 from rat liver
Structures can show the parent of a compound that is named as a salt.
Property: pIC50
In textbook form, pIC50 equals minus log to base ten of the concentration in mol/L.

These recorded examples may help you get a feel for the data.
Q: Report measured pIC50; entry is Cc1cc(C)c2c(c1)C(=O)CC1(CCN(C(=O)c3cccc4cn[nH]c34)CC1)O2 [Ex. H13]
A: 5.88

Q: Please give the documented pIC50 of COc1cc(Cl)cc2c1C(=O)CC1(CCN(C(=O)c3cc(C)c4[nH]ncc4c3)CC1)O2 [Ex. A19]
A: 7.09

Q: State its pIC50: Cc1cc2c(cc1C)C(=O)CC1(CCN(C(=O)c3ccc4c(C)n[nH]c4c3)CC1)O2 [Ex. F1]
A: 7.45

Q: Answer with reported pIC50 of Cc1nc2cc(C(=O)N3CCC4(CC3)CC(=O)c3cc(C)c(C)cc3O4)ccc2[nH]1 [Ex. L24, trifluoroacetic acid salt]
A: 6.08

Q: Please indicate pIC50 recorded for CCc1cc(C(=O)N2CCC3(CC2)CC(=O)c2cc(OC)ccc2O3)cc2cn[nH]c12 [Ex. C2]
A: 7.65

Now, please, on to the next compound.
Q: Fill in reported pIC50 for this entry: Cc1cc(C(=O)N2CCC3(CC2)CC(=O)c2cc(Cl)c(Cl)cc2O3)cc2cn[nH]c12 [Ex. A14]
A: 7.28
